From: patent US12280038B2

assay: in vivo
ASSAY_METRIC: bioavailability (%)
Express the result in % but write the number alone.

Asked: Request the reported bioavailability associated with C#CC[C@H](N)C(=O)O
Given back: 100
